targetOrTestSystem: Calcitonin gene-related peptide type 1 receptor (Homo sapiens, UniProt O60894+Q16602)
Sequence (Q16602 whole entry, one chain of several): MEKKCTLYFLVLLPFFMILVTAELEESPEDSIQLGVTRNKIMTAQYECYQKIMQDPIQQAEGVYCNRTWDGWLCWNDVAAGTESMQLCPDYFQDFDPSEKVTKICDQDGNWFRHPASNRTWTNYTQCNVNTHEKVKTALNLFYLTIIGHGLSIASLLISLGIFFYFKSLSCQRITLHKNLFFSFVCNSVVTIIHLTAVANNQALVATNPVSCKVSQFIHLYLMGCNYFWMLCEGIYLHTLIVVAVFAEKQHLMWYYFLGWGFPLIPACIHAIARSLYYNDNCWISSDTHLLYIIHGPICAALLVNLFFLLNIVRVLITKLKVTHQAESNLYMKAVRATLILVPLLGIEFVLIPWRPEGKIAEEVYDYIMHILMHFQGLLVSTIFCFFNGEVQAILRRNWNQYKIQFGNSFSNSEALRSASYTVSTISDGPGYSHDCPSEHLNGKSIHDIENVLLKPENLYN
method: Displacement of [125I]CGRP from CGRP receptor in human SK-N-MC cell membrane after 2 hrs
measurementType: Ki

Observed Ki on Calcitonin gene-related peptide type 1 receptor (Homo sapiens, UniProt O60894+Q16602) for `O=C(N[C@@H](Cc1cc(Br)c(O)c(Br)c1)C(=O)N1CCC(N2CCCCC2)CC1)N1CCC(n2c(=O)[nH]c3ccccc32)CC1` , please.
> 1000 nM

Observed Ki on Calcitonin gene-related peptide type 1 receptor (Homo sapiens, UniProt O60894+Q16602) for `O=C(N[C@H](CCc1ccccc1)C(=O)N1CCC(N2CCCCC2)CC1)N1CCC(n2c(=O)[nH]c3ccccc32)CC1` , please.
> 1000 nM

Observed Ki on Calcitonin gene-related peptide type 1 receptor (Homo sapiens, UniProt O60894+Q16602) for `O=C(O)CC[C@@H](NC(=O)N1CCC(n2c(=O)[nH]c3ccccc32)CC1)C(=O)N1CCC(N2CCCCC2)CC1` , please.
> 1000 nM
